The measurements presented in this section are drawn from paper PMC11408249.

# target_or_system: T1, Collagen type III (COL3) (Homo sapiens, UniProt P02461)
# T1 chain: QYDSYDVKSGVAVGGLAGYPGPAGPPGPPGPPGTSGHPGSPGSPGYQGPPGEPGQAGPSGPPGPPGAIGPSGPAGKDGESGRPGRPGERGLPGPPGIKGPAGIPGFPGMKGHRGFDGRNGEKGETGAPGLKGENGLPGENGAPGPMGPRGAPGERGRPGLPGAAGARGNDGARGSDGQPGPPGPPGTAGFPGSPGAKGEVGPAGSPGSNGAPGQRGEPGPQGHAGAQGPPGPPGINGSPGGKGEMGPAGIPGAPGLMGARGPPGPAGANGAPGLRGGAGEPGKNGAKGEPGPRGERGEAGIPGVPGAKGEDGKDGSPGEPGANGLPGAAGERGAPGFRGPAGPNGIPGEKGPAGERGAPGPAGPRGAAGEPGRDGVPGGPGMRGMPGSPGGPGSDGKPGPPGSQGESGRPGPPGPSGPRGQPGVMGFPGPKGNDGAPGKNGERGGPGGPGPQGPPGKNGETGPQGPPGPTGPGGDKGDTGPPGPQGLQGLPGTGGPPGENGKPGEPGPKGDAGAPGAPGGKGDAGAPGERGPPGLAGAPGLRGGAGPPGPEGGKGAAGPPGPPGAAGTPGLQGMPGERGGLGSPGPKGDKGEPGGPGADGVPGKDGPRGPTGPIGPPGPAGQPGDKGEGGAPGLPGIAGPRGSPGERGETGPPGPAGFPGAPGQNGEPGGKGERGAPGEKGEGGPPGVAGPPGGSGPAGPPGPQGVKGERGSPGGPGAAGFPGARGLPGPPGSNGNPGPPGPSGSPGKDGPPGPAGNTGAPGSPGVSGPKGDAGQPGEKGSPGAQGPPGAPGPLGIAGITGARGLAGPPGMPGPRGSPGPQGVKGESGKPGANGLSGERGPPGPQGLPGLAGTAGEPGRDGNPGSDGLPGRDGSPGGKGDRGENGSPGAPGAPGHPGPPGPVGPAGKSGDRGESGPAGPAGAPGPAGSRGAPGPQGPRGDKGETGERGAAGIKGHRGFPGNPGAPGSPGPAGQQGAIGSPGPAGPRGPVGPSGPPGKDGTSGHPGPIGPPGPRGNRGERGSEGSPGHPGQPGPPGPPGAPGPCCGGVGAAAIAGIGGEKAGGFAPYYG
# experiment: competition Eu(III) time-resolved fluorescence assay
No end group written: not given here.
measured_parameter: pIC50
The read-out pIC50 is expressed as -log10 of concentration in moles per litre.

Sample Ac-C((Gd-DOTAMA)4 tri‑lysine scaffold)DARKSEVQK (not fully specified) [[Gd-DOTAMA]4-CBP1] ; pIC50 observed: 3.70
